Answer each item with its documented TGI.
- Tested on: HCT-116 colon
- assay details: NCI tumour cell line growth inhibition, 48 h

Some solved entries appear below for comparison.
COc1ccc(-c2c3c(N)nc(-c4ccncc4)nc3nc3c2c(C)nn3-c2ccccc2)cc1 ... 13.6 µM
Nc1ccccc1C#C/C=C\C#Cc1cccs1 ... 46.5 µM
Cc1ccccc1[P+](Cc1ccccc1)(c1ccccc1)c1ccccc1 ... > 100 µM

Provide TGI for all items below, preserving their order.
1. N#C/C(=C\c1ccc(O)c(O)c1)C(N)=S
2. COc1cc(C2C(C(=O)O)=C(CO)Oc3cc4c(cc32)OCO4)cc(OC)c1O (stereo not drawn)
3. CCOC(CN=C=S)OCC
4. CC(=O)N1C(=O)/C(=C\C(=O)c2ccc([N+](=O)[O-])cc2)c2ccccc21
5. O=C(CCCCCCC(=O)Nc1ccc(N(CCCl)CCCl)cc1)NO
6. COc1cc(C2CC(c3ccc4c(c3)OCO4)=NN2C=O)cc(OC)c1OC (stereo not drawn)
7. O=S(=O)(O)c1ccc(O)c2ncc(Cl)cc12

// result
> 100 µM
> 100 µM
> 10 µM
37.8 µM
12.9 µM
> 100 µM
> 100 µM

---

- Test system: SW-620 colon
- assay details: NCI tumour cell line growth inhibition, 48 h
metric: TGI

Some solved entries appear below for comparison.
Nc1nc2c(c3ncncc13)C(c1cccc(C(F)(F)F)c1)Cc1ncncc1-2 (stereo unspecified) ... > 100 µM
CC(=O)Nc1cc([As](=O)(O)O)ccc1O ... > 100 µM
CC(C)[C@H]1CO[C@]2(C)[C@@H]3CN(Cc4ccccc4)C[C@@H]3C(=O)N12 ... > 100 µM
[N-]=[N+]=Nc1c(C=O)c(=O)n2c3c(cccc13)CCC2 ... 2.87 µM
N#CC12C(=O)N3C(=NC(c4ccccc4)NC3c3ccccc3)C1(C#N)C(c1ccccc1)NC1=C2CCC1 (stereo unspecified) ... > 100 µM
O=C(Cc1ccccc1)NNc1nc(NNC(=O)c2ccncc2)nc(Nc2ccc([N+](=O)[O-])cc2)n1 ... > 10 µM
CCN(CC)CCCNc1nc(=O)[nH]c(C)c1C(=O)Nc1cccc2cc3ccccc3cc12 ... > 100 µM
NC1CC(=O)c2sc(I)cc21 (stereo unspecified) ... > 100 µM
CCCC(C)c1cc(Cc2cc(Cl)cc(Cl)c2O)c(O)c(Cc2cc(Cl)cc(Cl)c2O)c1 (stereo unspecified) ... 12.7 µM
COc1ccc(-c2nn3c(-c4cc(F)c(Cl)cc4Cl)nnc3s2)cc1 ... > 100 µM

Provide TGI for all items below, preserving their order.
1. COc1cc(OC)c2c(c1)C(=O)C(CC(C)O)=CC2=O (stereo unspecified)
2. O=c1cc(-c2ccccc2)[nH]c2ccccc12
3. N#C/C(=C\c1ccc(O)c(O)c1)C(N)=S
4. CC(=O)N1C(c2[nH]c3ccccc3c2-c2ccccc2)CCN1c1ccccc1 (stereo unspecified)
5. COCCN(C(C)=O)C1CCC2(SCCS2)c2[nH]c3ccccc3c21 (stereo unspecified)

// result
1. 31.7 µM
2. > 100 µM
3. > 100 µM
4. > 10 µM
5. > 100 µM

Entry CC(NNC(=O)c1ccncc1)c1ccc(F)cc1 (stereo unspecified) , TGI reported as > 100 µM

---

- Tested on: NCI/ADR-RES ovarian
- assay details: NCI tumour cell line growth inhibition, 48 h
metric: TGI (µM)
Numbers only, in µM.

C=CCOc1cccc(/C=C2\SC(=Nc3ccc(O)cc3)NC2=O)c1 ... 17.1

Consider now this further molecule.
Entry COc1ccc2c(c1)cn1c3ccc(O)cc3nc(N)c21 , TGI reported as 3.33

---

- Tested on: OVCAR-5 ovarian
- assay details: NCI tumour cell line growth inhibition, 48 h
Answer each item with its documented TGI.

COc1ccc(-c2c3c(N)nc(-c4ccncc4)nc3nc3c2c(C)nn3-c2ccccc2)cc1 ... > 100 µM
CC1=Nc2ccccc2S/C1=C(/C)NNC(=O)C(N)=O ... > 100 µM
CC1SC(c2ccccc2)N(CCc2cccs2)C1=O (stereo unspecified) ... 27 µM

Provide TGI for all items below, preserving their order.
1. COc1cccc(-n2ncc3c(N/N=C/c4ccc(C(=O)NCCN(C)C)cc4)ncnc32)c1
2. COC(=O)[C@H](C[C@H](Cc1ccccc1)NC(=O)c1csc([C@@H](C[C@H](C(C)C)N(C)C(=O)[C@@H](NC(=O)[C@H]2CCCCN2C)C(C)C)OC(C)=O)n1)NC(=O)OCc1ccccc1
3. CC12CCC(CC1=O)C2(C)CCC(N)=O (stereo unspecified)
4. O=S(=O)(O)c1ccc(O)c2ncc(Cl)cc12

// result
1. 8.61 µM
2. > 9 µM
3. > 100 µM
4. > 100 µM

Provide TGI for all items below, preserving their order.
1. COC(=O)C(=O)C1(CCC(C)=O)c2ccccc2-c2c(C)ccc(C)c21 (stereo unspecified)
2. CCN(CC)CC(C)Nc1ccc([N+](=O)[O-])c2sc3ccccc3c(=O)c12 (stereo unspecified)
3. CCOC(=O)c1ccc(N=C2C(=S)N(c3ccc(C(=O)OCC)cc3)C(=N)N2/N=C/c2ccccc2)cc1
4. Cn1cnc(CCc2ccccc2)n1
5. Nc1nc2c(c3ncncc13)C(c1cccc(C(F)(F)F)c1)Cc1ncncc1-2 (stereo unspecified)
6. O=CC(=C(I)I)c1ccccc1

// result
["> 100 µM", "> 100 µM", "40.5 µM", "> 100 µM", "31.4 µM", "15.1 µM"]

Provide TGI for all items below, preserving their order.
1. C=CCNc1nc(C#N)c(N)s1
2. Nc1ncnc2ccc(Sc3ccc4ncnc(N)c4c3)cc12

// result
1: > 10 µM; 2: > 100 µM

Provide TGI for all items below, preserving their order.
1. CCSCCC(N)C(=O)O (stereo unspecified)
2. Cc1nc(N)nc(N)c1-c1ccc(Cl)c(Cl)c1
3. Cc1ccccc1[P+](Cc1ccccc1)(c1ccccc1)c1ccccc1
4. C[n+]1c2ccccc2c(C(=O)Nc2ccc(S(=O)(=O)Nc3ccnn3-c3ccccc3)cc2)c2ccccc21
5. CCc1nccc2c1nc(-c1nonc1N)n2CC
6. CCOc1ccc(NC(=O)C(=O)CC(=O)C2=C(C)Nc3ccccc3S2)cc1
7. Cc1ccc(NC(=O)C(=O)C(C#N)c2ccccc2C)cc1C (stereo unspecified)
8. CC1OC(O[C@@H]2OC=C(C=O)[C@@]3(O)CC[C@H](C)[C@@H]23)C(O)C(O)C1O (stereo partly specified)

// result
> 100 µM
> 100 µM
> 100 µM
> 100 µM
> 25 µM
> 50 µM
> 100 µM
> 100 µM

---

Answer each item with its documented TGI.
- Tested on: ACHN renal
- assay details: NCI tumour cell line growth inhibition, 48 h

Some solved entries appear below for comparison.
CC1SC2=NC3=C(c4ccccc4C3=O)C(c3ccc(F)cc3)N2C1=O (centres undefined) ... > 100 µM
CCCCCCCCCCCC(=O)Oc1c(Cl)cc(Cl)c(OC(=O)C(=O)Oc2c(Cl)cc(Cl)c(OC(=O)CCCCCCCCCCC)c2Cl)c1Cl ... > 100 µM
COc1ccc(/C=C2\CCCC3=C2N=C2SC(C)=NN2C3c2ccc(OC)c(OC)c2)cc1OC (centres undefined) ... 33.3 µM
COc1cc(C2CC(c3ccc4c(c3)OCO4)=NN2C=O)cc(OC)c1OC (centres undefined) ... > 100 µM
COc1ccc(-c2ccc(/C=N/n3c(COc4ccc(Cl)cc4Cl)nn(CN4CCOCC4)c3=S)o2)c([N+](=O)[O-])c1 ... > 100 µM
CCSCCC(N)C(=O)O (centres undefined) ... > 100 µM
Cc1ccc(N=Cc2ccc3c(c2)OCO3)cc1C ... > 100 µM
O=C(Cc1ccccc1)NNc1nc(NNC(=O)c2ccncc2)nc(Nc2ccc([N+](=O)[O-])cc2)n1 ... > 10 µM

Entry COc1cc(C2C(C(=O)O)=C(CO)Oc3cc4c(cc32)OCO4)cc(OC)c1O (centres undefined) , TGI reported as > 100 µM

---

- Tested on: RPMI-8226 leukemia
- assay details: NCI tumour cell line growth inhibition, 48 h
Answer each item with its documented TGI.
Answers are plain numbers, in µM.

Some solved entries appear below for comparison.
Cc1cc(N(CCCl)CCCl)ccc1C=Nc1ccc(-c2csc(Cc3ccccc3)n2)cc1 ... 44
COC(=O)[C@H](C[C@H](Cc1ccccc1)NC(=O)c1csc([C@@H](C[C@H](C(C)C)N(C)C(=O)[C@@H](NC(=O)[C@H]2CCCCN2C)C(C)C)OC(C)=O)n1)NC(=O)OCc1ccccc1 ... 2.34
CC[C@@H](C(=O)O)C1CC[C@H](C)C([C@@H](C)[C@H](O)[C@H](C)C(=O)[C@H](CC)C2O[C@]3(C=C[C@@H](O)[C@]4(CC[C@@](C)(C5CC[C@](O)(CC)[C@H](C)O5)O4)O3)[C@H](C)C[C@@H]2C)O1 (stereo partly drawn) ... 3.48

Consider now this further molecule.
Entry CCOC(=O)COc1ccccc1/C=C1\CCC(CN(C)C)C1=O (stereo not drawn) , TGI reported as 3.48
